Data provenance: patent US20100267784A1

system.name: ERα (Homo sapiens, UniProt P03372)
Sequence (P03372 whole entry): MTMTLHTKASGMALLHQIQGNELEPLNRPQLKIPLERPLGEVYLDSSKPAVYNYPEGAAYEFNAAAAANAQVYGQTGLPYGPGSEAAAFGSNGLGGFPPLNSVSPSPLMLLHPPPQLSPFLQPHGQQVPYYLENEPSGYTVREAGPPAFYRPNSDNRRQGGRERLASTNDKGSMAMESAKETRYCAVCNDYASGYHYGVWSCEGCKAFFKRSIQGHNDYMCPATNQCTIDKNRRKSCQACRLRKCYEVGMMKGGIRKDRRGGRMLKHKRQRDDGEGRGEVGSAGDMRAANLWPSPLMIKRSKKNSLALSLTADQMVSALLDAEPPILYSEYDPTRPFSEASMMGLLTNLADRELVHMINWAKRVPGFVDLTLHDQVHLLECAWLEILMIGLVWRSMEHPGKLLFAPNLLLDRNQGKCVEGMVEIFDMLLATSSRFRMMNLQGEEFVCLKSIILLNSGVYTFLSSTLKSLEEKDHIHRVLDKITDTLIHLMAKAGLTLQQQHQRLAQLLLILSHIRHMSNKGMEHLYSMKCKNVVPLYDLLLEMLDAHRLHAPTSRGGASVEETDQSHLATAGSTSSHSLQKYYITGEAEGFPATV
experimental.protocol: Competitive binding against [6,7-3H(N)]estradiol in COS-1 cells transfected with human ERα
measurement.setup: relative to E2 = 100.0
observable: ERα RBA (relative binding affinity) (%)

Sample records with ERα RBA (relative binding affinity):
>>> recorded_measurement("CC1(c2ccccc2)CC(CCCc2ccc(O)cc2)=NO1 (single isomer, unassigned) [90b]")
0.009
>>> recorded_measurement("CC1(c2ccccc2)CC(CCCc2ccc(O)cc2)=NO1 (single isomer, unassigned) [90a]")
0.784
>>> recorded_measurement("Oc1ccc(CCCC2=NOC(c3ccccc3)C2)cc1 (single isomer, unassigned) [88b]")
6.533
>>> recorded_measurement("c1ccc(CCCC2=NOC(c3ccccc3)C2)cc1 (single isomer, unassigned) [113b]")
0.035
>>> recorded_measurement("Oc1ccc(CCC2=NOC(Cc3ccccc3)C2)cc1 (single isomer, unassigned) [93b]")
0.091
>>> recorded_measurement("Oc1ccc(CCC2=NOC(Cc3ccccc3)C2)cc1 (single isomer, unassigned) [93a]")
0.912

A. Oc1ccc(CCCC2=NOC(c3ccccc3)C2)cc1 (single isomer, unassigned) [88a]
B. c1ccc(CCCC2=NOC(c3ccccc3)C2)cc1 (single isomer, unassigned) [113a]
Task: Lower value for measured ERα RBA (relative binding affinity)? Options: A , B Write down the label of the entry you select.
Output: B
(B: 0.103%, A: 15.68%)

###

observable: melting point

>>> recorded_measurement("c1ccc(CC2CC(c3ccccc3)=NO2)cc1 (stereo not drawn) [compound 107, 5-Benzyl-3-phenyl-4,5-dihydroisoxazole]")
"67 to 68 °C"
>>> recorded_measurement("COc1ccc(C2=NOC(Cc3ccc(OC)c(OC)c3)C2)cc1 (stereo not drawn) [16ab]")
"88.1 to 89.2 °C"
>>> recorded_measurement("CCc1ccc(CC2CC(c3ccc(Cl)cc3)=NO2)cc1 (stereo not drawn) [compound 34]")
"117.1 to 119.2 °C"
>>> recorded_measurement("COc1ccccc1CC1CC(c2ccc(Cl)cc2)=NO1 (stereo not drawn) [compound 36]")
"109.9 to 111.2 °C"
>>> recorded_measurement("Fc1ccccc1C1=NOC(Cc2ccccc2)(c2ccccc2)C1 (stereo not drawn) [compound 75]")
"134.3 to 135.2 °C"

Now for a further molecule.
Task: Query: melting point; subject: Oc1ccc(CCC2=NOC(Cc3ccccc3)C2)cc1 (stereo not drawn) [compound 93]
Output: 143 to 144.8 °C

###

system.name: ERβ (Homo sapiens)
Sequence (Q92731 whole entry): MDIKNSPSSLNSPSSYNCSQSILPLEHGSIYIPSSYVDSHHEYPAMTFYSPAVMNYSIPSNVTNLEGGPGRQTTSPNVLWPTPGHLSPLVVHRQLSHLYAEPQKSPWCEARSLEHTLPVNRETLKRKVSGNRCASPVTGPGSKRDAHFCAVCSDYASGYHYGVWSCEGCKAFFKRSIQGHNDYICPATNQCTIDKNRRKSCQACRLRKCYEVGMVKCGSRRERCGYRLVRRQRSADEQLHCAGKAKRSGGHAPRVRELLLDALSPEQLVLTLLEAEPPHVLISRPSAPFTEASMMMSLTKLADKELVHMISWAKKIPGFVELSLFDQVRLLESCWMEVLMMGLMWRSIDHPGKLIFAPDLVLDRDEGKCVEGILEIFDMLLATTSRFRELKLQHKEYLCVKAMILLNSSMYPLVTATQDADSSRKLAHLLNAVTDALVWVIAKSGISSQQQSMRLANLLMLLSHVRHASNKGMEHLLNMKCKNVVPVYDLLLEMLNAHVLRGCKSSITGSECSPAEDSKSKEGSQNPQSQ
experimental.protocol: Competitive binding against [6,7-3H(N)]estradiol in COS-1 cells transfected with human ERβ
measurement.setup: relative to E2 = 100.0
observable: ERβ RBA (relative binding affinity) (%)

>>> recorded_measurement("c1ccc(CCCC2=NOC(c3ccccc3)C2)cc1 (single isomer, unassigned) [113b]")
0.036
>>> recorded_measurement("Oc1ccc(CCC2=NOC(Cc3ccccc3)C2)cc1 (single isomer, unassigned) [93a]")
0.157

A. Oc1ccc(CCCC2=NOC(c3ccccc3)C2)cc1 (single isomer, unassigned) [88b]
B. CC1(c2ccccc2)CC(CCCc2ccc(O)cc2)=NO1 (single isomer, unassigned) [90a]
Task: // max by ERβ RBA (relative binding affinity) over [ A , B ] Answer format: the label of the selected item.
Output: A

###

system.name: ERα (Homo sapiens)
experimental.protocol: ERα reporter (luciferase) transactivation assay in transfected HEK293 cells
Type: cell-based
Parameters: expressed in transfected cells; host or cells: HEK293
measurement.setup: sample concentration 10 μM, 24 hours, mean of at least three independent transfections
observable: ERα receptor activation relative to 10 nM E2 corresponding 100 (%)

Sample answers from the record:
>>> recorded_measurement("Oc1ccc(CC2=NOC(c3cccc(O)c3)C2)cc1 (single isomer, unassigned) [83b]")
3.6
>>> recorded_measurement("c1ccc(CCC2CC(Cc3ccccc3)=NO2)cc1 (centres unmarked) [108ab]")
37.0
>>> recorded_measurement("Oc1ccc(CC2CC(CCc3ccccc3)=NO2)cc1 (single isomer, unassigned) [94b]")
105.2
>>> recorded_measurement("CC1(c2ccccc2)CC(CCc2ccc(O)cc2)=NO1 (single isomer, unassigned) [87b]")
18.7

1. Oc1ccc(CC2CC(CCc3ccccc3)=NO2)cc1 (single isomer, unassigned) [94a]
2. Oc1ccc(CC2CC(CCCc3ccccc3)=NO2)cc1 (single isomer, unassigned) [100b]
Task: // which entry has the larger ERα receptor activation relative to 10 nM E2 corresponding 100 value, 1 or 2 ? Indicate which entry you chose by stating its label.
Output: 2

P. Oc1ccc(CCCC2=NOC(c3cccc(O)c3)C2)cc1 (single isomer, unassigned) [89b]
Q. Oc1ccc(CCCC2=NOC(c3ccccc3)C2)cc1 (single isomer, unassigned) [88b]
R. c1ccc(CCC2=NOC(c3ccccc3)C2)cc1 (single isomer, unassigned) [110a]
S. Oc1ccc(CC2CC(CCc3ccccc3O)=NO2)cc1 (single isomer, unassigned) [95b]
T. Oc1ccccc1CCC1=NOC(Cc2ccccc2)C1 (single isomer, unassigned) [91a]
Task: Ranking field: ERα receptor activation relative to 10 nM E2 corresponding 100; order: falling. Would you mind listing the labels in the order asked for?
Output: T, Q, P, R, S
(T: 104.8%, Q: 65.0%, P: 27.6%, R: 16.4%, S: 6.2%)

I. Oc1ccc(CC2CC(CCCc3ccccc3)=NO2)cc1 (single isomer, unassigned) [100a]
II. COc1ccc(CC2CC(CCc3ccccc3)=NO2)cc1 (single isomer, unassigned) [65b]
III. Oc1ccccc1CCC1=NOC(CCc2ccccc2)C1 (single isomer, unassigned) [104a]
Task: Put the items in sequence by ERα receptor activation relative to 10 nM E2 corresponding 100, from largest down. Hello, could you send the labels back in the order asked? Thank you.
Output: I, II, III
(I: 67.1%, II: 16.1%, III: 4.5%)

A. CC1(c2ccccc2)CC(CCCc2ccc(O)cc2)=NO1 (single isomer, unassigned) [90a]
B. Oc1ccc(CCCC2=NOC(c3cccc(O)c3)C2)cc1 (single isomer, unassigned) [89a]
C. Oc1ccc(CC2CC(CCCc3ccc(O)c(O)c3)=NO2)cc1 (single isomer, unassigned) [103b]
Task: Parameters: sort_field (ERα receptor activation relative to 10 nM E2 corresponding 100), sort_dir (desc). Returns: the labels listed in the requested order.
Output: A, B, C

###

system.name: ERβ (Homo sapiens)
experimental.protocol: ERβ reporter (luciferase) transactivation assay in transfected HEK293 cells
Format: cell-based
Design: expressed in transfected cells; host or cells: HEK293
measurement.setup: HEK293, 24 h, read-out: ERβ receptor activation relative to 10 nM E2 corresponding 100, sample concentration 10 μM, mean of at least three independent transfections
observable: activation at 10 µM (%)

>>> recorded_measurement("c1ccc(CC2CC(c3ccccc3)=NO2)cc1 (single isomer, unassigned) [107a, 5-Benzyl-3-phenyl-4,5-dihydroisoxazole]")
6.6
>>> recorded_measurement("Oc1ccc(C2=NOC(Cc3ccccc3)C2)cc1 (single isomer, unassigned) [80a]")
28.5
>>> recorded_measurement("c1ccc(CCC2=NOC(c3ccccc3)C2)cc1 (single isomer, unassigned) [110a]")
9.8

P. Oc1ccc(CCCC2=NOC(c3cccc(O)c3)C2)cc1 (single isomer, unassigned) [89a]
Q. c1ccc(CC2=NOC(c3ccccc3)C2)cc1 (stereo not shown) [112ab, 3-Benzyl-5-phenyl-4,5-dihydroisoxazole]
R. Oc1ccccc1CCC1=NOC(Cc2ccccc2)C1 (single isomer, unassigned) [91a]
S. c1ccc(CCC2=NOC(Cc3ccccc3)C2)cc1 (single isomer, unassigned) [109a]
T. COc1ccc(C2=NOC(Cc3ccc(OC)c(OC)c3)C2)cc1 (stereo not shown) [16ab]
Task: Sort (5 compounds) by activation at 10 µM: min first. Kindly provide the labels arranged according to the requested ordering.
Output: S, T, P, R, Q

a. Oc1ccc(CC2=NOC(c3cccc(O)c3)C2)cc1 (single isomer, unassigned) [83a]
b. c1ccc(CCC2CC(Cc3ccccc3)=NO2)cc1 (stereo not shown) [108ab]
c. Fc1ccc(CC2CC(CCc3ccccc3)=NO2)cc1 (single isomer, unassigned) [66a]
Task: // sort entries: activation at 10 µM, high to low Sort and list the labels as requested.
Output: a, c, b
(a: 33.2%, c: 11.2%, b: 1.2%)

A. COc1ccccc1CC1CC(CCc2ccccc2)=NO1 (single isomer, unassigned) [64a]
B. Oc1cccc(C2CC(Cc3ccccc3)=NO2)c1 (stereo not shown) [82ab]
Task: Higher activation at 10 µM between A and B ? Select an item and report its label.
Output: A

a. COc1ccc(CC2CC(CCc3ccccc3)=NO2)cc1 (single isomer, unassigned) [65b]
b. Oc1ccccc1CCC1=NOC(CCc2ccccc2)C1 (single isomer, unassigned) [104a]
Task: Compare reported activation at 10 µM values for a and b . Which is lower? # respond with the chosen item's label
Output: b

A. Oc1cccc(CCC2=NOC(CCc3ccccc3)C2)c1 (single isomer, unassigned) [105a]
B. c1ccc(CCC2=NOC(Cc3cccc4ccccc34)C2)cc1 (single isomer, unassigned) [67a]
C. CC1(c2ccccc2)CC(CCCc2ccccc2)=NO1 (stereo not shown) [115ab]
Task: Put the entries in order of activation at 10 µM, starting with the largest number. Quick reminder: the answer is the labels in the order asked.
Output: C, B, A
